ASSAY DETAILS: Oral bioavailability in beagle dog at 5 mg/kg
Type: ADME, organism-based, Canis lupus familiaris
PARTICULARS: in vivo
QUANTITY NAME: bioavailability (%)
Could you give me the number in %? Just the number is fine.

Solved cases below.
# SMILES NOTATION, REPORTED VALUE
rows = [
    ("O=C1Nc2ccccc2[C@]12C[C@H]2c1ccc2c(/C=C/c3ccc(CN4CCOCC4)cc3)n[nH]c2c1", 9.7),
    ("COc1ccc2c(c1)[C@]1(C[C@H]1c1ccc3c(/C=C/c4ccc(CN5CCOCC5)cc4)n[nH]c3c1)C(=O)N2C", 32),
    ("Cc1ccc2c(c1)[C@]1(C[C@H]1c1ccc3c(/C=C/c4ccc(CN5CCOCC5)cc4)n[nH]c3c1)C(=O)N2", 29),
    ("COc1ccc2c(c1)[C@]1(C[C@H]1c1ccc3c(/C=C/c4ccc(CN5C[C@@H](C)O[C@@H](C)C5)cc4)n[nH]c3c1)C(=O)N2", 66),
    ("COc1ccc2c(c1)[C@]1(C[C@H]1c1ccc3c(/C=C/c4ccc(CN5CCOCC5)cc4)n[nH]c3c1)C(=O)N2", 71),
]

From here, focus on the item given below.
For the compound `C[C@@H]1CN(Cc2ccc(/C=C/c3n[nH]c4cc([C@@H]5C[C@@]56C(=O)Nc5ccccc56)ccc34)cc2)C[C@H](C)O1` , report bioavailability.
49

---

ASSAY DETAILS: Half life in rat liver microsomes
PARTICULARS: microsomes
QUANTITY NAME: half-life
Form entry: enter the amount, then its unit.

Please review the following examples before continuing.
# SMILES NOTATION, half-life
measured = [
    ("COc1ccc2c(c1)[C@]1(C[C@H]1c1ccc3c(/C=C/c4ccc(CN5C[C@@H](C)O[C@@H](C)C5)cc4)n[nH]c3c1)C(=O)N2C", "18 min"),
    ("COc1ccc2c(c1)[C@]1(C[C@H]1c1ccc3c(/C=C/c4ccc([C@H](C)N5CCOCC5)cc4)n[nH]c3c1)C(=O)N2C", "10 min"),
]

We now examine a further compound.
Please look at this compound and report its half-life: `COc1ccc2c(c1)[C@]1(C[C@H]1c1ccc3c(/C=C/c4ccc(CN5CCOCC5)cc4)n[nH]c3c1)C(=O)N2C`
6.4 min

---

Cytochrome P450 2C19 (Homo sapiens, UniProt P33261) measurements of IC50, listed per entry.
Sequence (P33261 whole entry): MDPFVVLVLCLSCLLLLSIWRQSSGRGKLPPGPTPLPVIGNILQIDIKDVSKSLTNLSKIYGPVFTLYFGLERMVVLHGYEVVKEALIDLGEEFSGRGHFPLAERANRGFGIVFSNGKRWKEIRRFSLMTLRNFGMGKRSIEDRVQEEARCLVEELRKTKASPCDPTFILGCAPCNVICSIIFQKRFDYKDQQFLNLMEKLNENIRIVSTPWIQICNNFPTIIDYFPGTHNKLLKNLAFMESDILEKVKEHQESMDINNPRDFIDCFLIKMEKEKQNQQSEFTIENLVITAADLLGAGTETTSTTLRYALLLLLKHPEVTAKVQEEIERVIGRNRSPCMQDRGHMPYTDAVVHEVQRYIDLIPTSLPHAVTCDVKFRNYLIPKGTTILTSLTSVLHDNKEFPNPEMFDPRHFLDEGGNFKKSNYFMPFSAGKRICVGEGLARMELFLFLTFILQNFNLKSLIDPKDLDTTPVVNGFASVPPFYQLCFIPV
Express it in µM; write the number only.

Known results for compounds:
# SMILES NOTATION, SYSTEM UNDER TEST, QUANTITY NAME, REPORTED VALUE
measured = [
    ("COc1ccc2c(c1)[C@]1(C[C@H]1c1ccc3c(/C=C/c4ccc(CN5CCOCC5)cc4)n[nH]c3c1)C(=O)N2C", "Cytochrome P450 2C19 (Homo sapiens, UniProt P33261)", "IC50", 1),
    ("CN(C)Cc1ccc(/C=C/c2n[nH]c3cc([C@@H]4C[C@@]45C(=O)N(C)c4ccccc45)ccc23)cc1", "Cytochrome P450 2C19 (Homo sapiens, UniProt P33261)", "IC50", 1.9),
    ("O=C1Nc2ccccc2[C@]12C[C@H]2c1ccc2c(/C=C/c3ccc(N4CCNCC4)cc3)n[nH]c2c1", "Cytochrome P450 2C19 (Homo sapiens, UniProt P33261)", "IC50", 0.9),
]

Kindly consider the entry below.
Enter recorded IC50 with Cytochrome P450 2C19 (Homo sapiens, UniProt P33261) for `COc1ccc2c(c1)[C@]1(C[C@H]1c1ccc3c(/C=C/c4ccc(CN5C[C@@H](C)O[C@@H](C)C5)cc4)n[nH]c3c1)C(=O)N2` here.
1.4
